Data provenance is ChEMBL document CHEMBL4251555.

test: Selectivity index, ratio of IC50 for human RPE1 cells to IC50 for human CCRF-CEM cells; type: toxicity; details: RPE1 cells versus CCRF-CEM cells, read-out: Ratio IC50
selectivity ratio values by entry

| molecule | selectivity ratio |
| --- | --- |
| CCOc1ccc(-n2nnc3n[nH]c(NC45CC6CC(CC(C6)C4)C5)c3c2=O)cc1 | > 6.4 |
| CCOc1ccc(NC(=O)/C(C#N)=C(\Nc2ccccc2)SC)cc1 | > 4.9 |
| CCOc1ccc(-n2nnc3n[nH]c(NC)c3c2=O)cc1 | > 8.1 |
| C=CCNc1[nH]nc(N)c1C(=O)Nc1ccc(OCC)cc1 | > 15.2 |
| C=CCN/C(SC)=C(/C#N)C(=O)Nc1ccc(OCC)cc1 | > 5.4 |
| CCNc1[nH]nc(N)c1C(=O)Nc1ccc(OCC)cc1 | > 7.2 |

----------
test system: Huh-7; experiment: Cytotoxicity against human HuH7 cells after 48 hrs by resazurin assay; type: functional, cell-based; conditions: Huh-7, 48 h
pIC50: −log10 of the molar value.

| compound | pIC50 |
| --- | --- |
| CCOc1ccc(NC(=O)/C(C#N)=C(\Nc2ccccc2)SC)cc1 | 4.60 |
| CCOc1ccc(NC(=O)/C(C#N)=C(\NC23CC4CC(CC(C4)C2)C3)SC)cc1 | 5.00 |
| CCOc1ccc(NC(=O)c2c(N)n[nH]c2NC)cc1 | 4.66 |
| COc1cccc2c1C(=O)c1c(O)c3c(c(O)c1C2=O)C[C@@](O)(C(=O)CO)C[C@@H]3O[C@H]1C[C@H](N)[C@H](O)[C@H](C)O1 [DOXORUBICIN] | 5.27 |
| CCOc1ccc(NC(=O)c2c(N)n[nH]c2NC23CC4CC(CC(C4)C2)C3)cc1 | 4.97 |
| CCOc1ccc(-n2nnc3n[nH]c(Nc4ccccc4)c3c2=O)cc1 | 5.03 |
| C=CCNc1[nH]nc(N)c1C(=O)Nc1ccc(OCC)cc1 | 4.66 |
| CCOc1ccc(NC(=O)/C(C#N)=C(\NC)SC)cc1 | 5.24 |
| CCOc1ccc(NC(=O)CC#N)cc1 | 4.67 |
| CCOc1ccc(-n2nnc3n[nH]c(NC)c3c2=O)cc1 | 5.15 |
| CCNc1[nH]nc2nnn(-c3ccc(OCC)cc3)c(=O)c12 | 4.84 |
| C=CCN/C(SC)=C(/C#N)C(=O)Nc1ccc(OCC)cc1 | 5.05 |
| CCOc1ccc(NC(=O)c2c(N)n[nH]c2Nc2ccccc2)cc1 | 5.36 |
| CCNc1[nH]nc(N)c1C(=O)Nc1ccc(OCC)cc1 | 4.57 |
| C=CCNc1[nH]nc2nnn(-c3ccc(OCC)cc3)c(=O)c12 | 5.31 |
| CCN/C(SC)=C(/C#N)C(=O)Nc1ccc(OCC)cc1 | 4.78 |
| CCOc1ccc(-n2nnc3n[nH]c(NC45CC6CC(CC(C6)C4)C5)c3c2=O)cc1 | 4.63 |

----------
selectivity ratio overview
assay: Selectivity index, ratio of IC50 for human RPE1 cells to IC50 for human HuH7 cells; assay type: toxicity; conditions: RPE1 cells versus HuH7 cells, read-out: Ratio IC50
readout_kind: selectivity ratio

| molecule | assay_value |
| --- | --- |
| CCNc1[nH]nc(N)c1C(=O)Nc1ccc(OCC)cc1 | > 3.7 |
| CCN/C(SC)=C(/C#N)C(=O)Nc1ccc(OCC)cc1 | > 6.1 |
| CCOc1ccc(NC(=O)c2c(N)n[nH]c2NC)cc1 | > 4.6 |
| C=CCN/C(SC)=C(/C#N)C(=O)Nc1ccc(OCC)cc1 | > 11.3 |
| CCOc1ccc(NC(=O)/C(C#N)=C(\NC)SC)cc1 | > 17.3 |
| CCOc1ccc(NC(=O)c2c(N)n[nH]c2Nc2ccccc2)cc1 | 15.7 |
| C=CCNc1[nH]nc(N)c1C(=O)Nc1ccc(OCC)cc1 | > 4.5 |
| CCNc1[nH]nc2nnn(-c3ccc(OCC)cc3)c(=O)c12 | > 6.9 |
| CCOc1ccc(-n2nnc3n[nH]c(Nc4ccccc4)c3c2=O)cc1 | > 10.6 |
| CCOc1ccc(NC(=O)/C(C#N)=C(\Nc2ccccc2)SC)cc1 | > 4 |
| CCOc1ccc(NC(=O)c2c(N)n[nH]c2NC23CC4CC(CC(C4)C2)C3)cc1 | 7.6 |
| C=CCNc1[nH]nc2nnn(-c3ccc(OCC)cc3)c(=O)c12 | > 20.3 |
| CCOc1ccc(NC(=O)/C(C#N)=C(\NC23CC4CC(CC(C4)C2)C3)SC)cc1 | > 10 |
| CCOc1ccc(-n2nnc3n[nH]c(NC)c3c2=O)cc1 | > 14.3 |
| CCOc1ccc(-n2nnc3n[nH]c(NC45CC6CC(CC(C6)C4)C5)c3c2=O)cc1 | > 4.3 |
| CCOc1ccc(NC(=O)CC#N)cc1 | > 4.6 |
